Target: His6-AspH315–758 (human aspartate/asparagine-β-hydroxylase, AspH) (Homo sapiens, UniProt Q12797)
Construct: N-Terminally His6-tagged human AspH315–758 (His6-AspH315–758) was produced in E. coli BL21 (DE3) cells; made in house; host or cells: E. coli BL21 (DE3), pET-28a(+) vector
Experiment: SPE-MS AspH inhibition assay (LOPAC screen at fixed 20 μM and IC50 dose-response), hydroxylation of cyclic peptide hFX-CP101–119
Type: biochemical
Counter-ions that a name gives are not always drawn.
In this section, each of the compounds is paired with its reported Plate 1 (% inhibition).

Solved entries (count: 2):
CCOc1ncc(S(=O)(=O)N2CCN(CC)CC2)cc1-c1nc2c(CC)n(CCOC)nc2c(=O)[nH]1.O=S(=O)(O)c1ccccc1 [Gisadenafil besylate salt]    -24.07%
O=C(O)c1cc2cc(F)ccc2[nH]1 [5-Fluoroindole-2-carboxylic acid]    12.00%

# input // returns reported Plate 1 (% inhibition) for input CCN1C[C@]2(COC)[C@H](O)C[C@H](OC)[C@@]34[C@@H]5C[C@@]6(O)[C@H](OC(=O)c7ccccc7)[C@@H]5[C@@](OC(C)=O)([C@@H]([C@H](OC)[C@H]23)[C@@H]14)[C@@H](O)[C@@H]6OC [Aconitine]
# output -14.35%

# input // returns reported Plate 1 (% inhibition) for input Cl.NC[C@@H]1O[C@H](C23CC4CC(CC(C4)C2)C3)Cc2c1ccc(O)c2O [A-77636 hydrochloride]
# output 62.00%

# input // returns reported Plate 1 (% inhibition) for input CC(NC(C)(C)C)C(=O)c1cccc(Cl)c1 (centres unmarked) [Bupropion hydrochloride]
# output -6.38%

# input // returns reported Plate 1 (% inhibition) for input CC(=O)SCC[N+](C)(C)C.[Cl-] [Acetylthiocholine chloride]
# output -4.90%

# input // returns reported Plate 1 (% inhibition) for input CN1[C@@H]2CC[C@H]1C[C@@H](OC(=O)C(CO)c1ccccc1)C2 (some centres unmarked) [Atropine sulfate]
# output 2.77%

# input // returns reported Plate 1 (% inhibition) for input NCCc1c[nH]c2ccccc12 [Tryptamine hydrochloride]
# output 3.95%

* * *

Target: His6-AspH315–758 (human aspartate/asparagine-β-hydroxylase, AspH) (Homo sapiens, UniProt Q12797)
Construct: N-Terminally His6-tagged human AspH315–758 (His6-AspH315–758) was produced in E. coli BL21 (DE3) cells; made in house; host or cells: E. coli BL21 (DE3), pET-28a(+) vector
Test: SPE-MS AspH inhibition assay (LOPAC screen at fixed 20 μM and IC50 dose-response), hydroxylation of cyclic peptide hFX-CP101–119
Format: biochemical
Settings: LOPAC compound at fixed 20 uM; plate 1, normalised to DMSO and 2,4-PDCA controls
value.kind: Plate 1 (% inhibition) (%)
The reply should be a number in %, with the unit left off.

CC1CNc2c(cccc2S(=O)(=O)N[C@@H](CCCNC(=N)N)C(=O)N2CC[C@@H](C)C[C@@H]2C(=O)O)C1 (some centres unmarked) [Argatroban monohydrate]    -7.94
O=c1nc2[nH]c3ccccc3nc-2c(=O)[nH]1 [Alloxazine]    -13.62
CC1=C(C(=O)O)N2C(=O)[C@@H](NC(=O)[C@H](N)c3ccccc3)[C@H]2SC1.O [Cephalexin hydrate]    14.49

# input // returns reported Plate 1 (% inhibition) for input C[C@@H](c1ncncc1F)[C@](O)(Cn1cncn1)c1ccc(F)cc1F [Voriconazole]
# output -9.17

* * *

Biological target: His6-AspH315–758 (human aspartate/asparagine-β-hydroxylase, AspH) (Homo sapiens)
Construct: N-Terminally His6-tagged human AspH315–758 (His6-AspH315–758) was produced in E. coli BL21 (DE3) cells; made in house; host or cells: E. coli BL21 (DE3), pET-28a(+) vector
Test: SPE-MS AspH inhibition assay (LOPAC screen at fixed 20 μM and IC50 dose-response), hydroxylation of cyclic peptide hFX-CP101–119
Format: biochemical
Conditions: LOPAC compound at 20uM, plate 2; conversion of substrate peptide
In this section, each of the compounds is paired with its reported Plate 2 (% conversion).
The reply should be a number in %, with the unit left off.

CCCCCC(O)CCCC(=O)O.[Na] (centres unmarked) [5-hydroxydecanoic acid sodium]    36.96

Turning to the following compound.
# input // returns reported Plate 2 (% conversion) for input C#C[C@]1(O)CC[C@H]2[C@@H]3CCC4=Cc5oncc5C[C@]4(C)[C@H]3CC[C@@]21C
# output 39.67

* * *

Target: His6-AspH315–758 (human aspartate/asparagine-β-hydroxylase, AspH) (Homo sapiens)
Construct: N-Terminally His6-tagged human AspH315–758 (His6-AspH315–758) was produced in E. coli BL21 (DE3) cells; made in house; host or cells: E. coli BL21 (DE3), pET-28a(+) vector
Test: SPE-MS AspH inhibition assay (LOPAC screen at fixed 20 μM and IC50 dose-response), hydroxylation of cyclic peptide hFX-CP101–119
Format: biochemical
Details: LOPAC compound at 20uM, plate 2; conversion of substrate peptide
value.kind: Plate 2 (% conversion) (%)
The reply should be a number in %, with the unit left off.

Solved entries (count: 7):
O=[N+]([O-])/C=C/c1ccc2c(c1)OCO2    25.80
COc1ccc2[n-]c([S@@+]([O-])Cc3ncc(C)c(OC)c3C)nc2c1.COc1ccc2[n-]c([S@@+]([O-])Cc3ncc(C)c(OC)c3C)nc2c1.O.O.[Mg+2] [Esomeprazole magnesium dihydrate]    41.52
CC(=O)[C@]1(O)Cc2c(O)c3c(c(O)c2[C@@H](O[C@H]2C[C@H](N)[C@H](O)[C@H](C)O2)C1)C(=O)c1ccccc1C3=O    34.69
Nc1ccn([C@H]2CC[C@@H](CO)O2)c(=O)n1    37.68
O=C(O)c1cc(=O)c2c(Cl)cc(Cl)cc2[nH]1    35.63
NC(=O)NO [Hydroxyurea]    37.94
O=c1[nH]cc(F)c(=O)[nH]1    36.11

Turning to the following molecule.
# input // returns reported Plate 2 (% conversion) for input Cc1nc2c(OCc3ccccc3)cccn2c1CC#N
# output 38.71

* * *

In this section, each of the compounds is paired with its reported Plate 2 (% inhibition).
Target: His6-AspH315–758 (human aspartate/asparagine-β-hydroxylase, AspH) (Homo sapiens, UniProt Q12797)
Construct: N-Terminally His6-tagged human AspH315–758 (His6-AspH315–758) was produced in E. coli BL21 (DE3) cells; made in house; host or cells: E. coli BL21 (DE3), pET-28a(+) vector
Experiment: SPE-MS AspH inhibition assay (LOPAC screen at fixed 20 μM and IC50 dose-response), hydroxylation of cyclic peptide hFX-CP101–119
Type: biochemical
Conditions: LOPAC compound at 20uM, plate 2; normalised to DMSO and 2,4-PDCA controls
The reply should be a number in %, with the unit left off.

COC(=O)c1c(C)[nH]c(C)c1C(=O)c1ccccc1Cc1ccccc1 [FPL 64176]    -8.64
O=C(O)Cc1c[nH]c2ccc(O)cc12 [5-Hydroxyindolacetic acid]    -3.79

# input // returns reported Plate 2 (% inhibition) for input CC(C)C(N)C(=O)OCC(CO)OCn1cnc2c(=O)[nH]c(N)nc21.Cl.O (stereo not drawn) [Valganciclovir hydrochloride hydrate]
# output -8.41

# input // returns reported Plate 2 (% inhibition) for input Cl.NO [Hydroxylamine hydrochloride]
# output -9.70

# input // returns reported Plate 2 (% inhibition) for input CC(C)[C@@H]1CC[C@@H](C)C[C@@H]1P(=O)(c1ccccc1)c1ccccc1 [DPO-1]
# output -13.96

* * *

Molecular target: His6-AspH315–758 (human aspartate/asparagine-β-hydroxylase, AspH) (Homo sapiens, UniProt Q12797)
Construct: N-Terminally His6-tagged human AspH315–758 (His6-AspH315–758) was produced in E. coli BL21 (DE3) cells; made in house; host or cells: E. coli BL21 (DE3), pET-28a(+) vector
Sequence (Q12797 315-758): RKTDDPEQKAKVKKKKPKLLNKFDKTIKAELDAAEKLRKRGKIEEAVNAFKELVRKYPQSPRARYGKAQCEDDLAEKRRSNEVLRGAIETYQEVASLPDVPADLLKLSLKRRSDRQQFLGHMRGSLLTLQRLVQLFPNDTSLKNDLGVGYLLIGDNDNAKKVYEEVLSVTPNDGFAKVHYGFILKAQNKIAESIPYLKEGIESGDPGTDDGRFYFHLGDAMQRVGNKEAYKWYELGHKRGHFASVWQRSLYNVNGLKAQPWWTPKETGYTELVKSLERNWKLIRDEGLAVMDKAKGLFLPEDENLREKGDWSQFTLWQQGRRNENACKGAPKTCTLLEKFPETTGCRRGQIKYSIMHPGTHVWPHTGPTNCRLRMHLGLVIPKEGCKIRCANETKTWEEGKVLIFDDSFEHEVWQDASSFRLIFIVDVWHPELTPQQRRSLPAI
Experiment: SPE-MS AspH inhibition assay (LOPAC screen at fixed 20 μM and IC50 dose-response), hydroxylation of cyclic peptide hFX-CP101–119
Format: biochemical
Settings: LOPAC compound at fixed 20 uM; plate 1, normalised to DMSO and 2,4-PDCA controls
Counter-ions that a name gives are not always drawn.
Decision: Plate 1 (% inhibition) >= -20% yields Condition met, all other cases yield Condition not met.

Use the examples below as a reference point.
Cl.c1ccc(CN(CC2=NCCN2)c2ccccc2)cc1 [Antozoline hydrochloride]    Condition met
CC1=C(C(=O)O)N2C(=O)[C@@H](NC(=O)[C@H](N)C3=CCC=CC3)[C@H]2SC1    Condition met
COc1cc(Nc2c(C#N)cnc3cc(OCCCN4CCN(C)CC4)c(OC)cc23)c(Cl)cc1Cl    Condition not met
CSc1nc(N)c2ncn([C@@H]3O[C@H](COP(=O)([O-])OP(=O)([O-])OP(=O)([O-])[O-])[C@@H](O)[C@H]3O)c2n1.[Na+].[Na+].[Na+].[Na+]    Condition met
N[C@@H](C(=O)N[C@@H]1C(=O)N2C(C(=O)O)=C(Cl)CS[C@H]12)c1ccccc1    Condition met

# input Has N[C@@H]1[C@H]2CN(c3nc4c(cc3F)c(=O)c(C(=O)O)cn4-c3ccc(F)cc3F)C[C@@H]12 [Trovafloxacin mesylate] a recorded Plate 1 (% inhibition) greater than or equal to -20%?
# output Condition not met

# input Has Clc1ccc(C(c2ccc(Cl)cc2)n2cc[n+](CC(OCc3ccc(Cl)cc3Cl)c3ccc(Cl)cc3Cl)c2)cc1 (stereo not shown) [Calmidazolium chloride] a recorded Plate 1 (% inhibition) greater than or equal to -20%?
# output Condition not met
